# TESTED ON: Luciferin 4-monooxygenase (Photinus pyralis) (UniProt P08659)
# Sequence (P08659 whole entry, looked up): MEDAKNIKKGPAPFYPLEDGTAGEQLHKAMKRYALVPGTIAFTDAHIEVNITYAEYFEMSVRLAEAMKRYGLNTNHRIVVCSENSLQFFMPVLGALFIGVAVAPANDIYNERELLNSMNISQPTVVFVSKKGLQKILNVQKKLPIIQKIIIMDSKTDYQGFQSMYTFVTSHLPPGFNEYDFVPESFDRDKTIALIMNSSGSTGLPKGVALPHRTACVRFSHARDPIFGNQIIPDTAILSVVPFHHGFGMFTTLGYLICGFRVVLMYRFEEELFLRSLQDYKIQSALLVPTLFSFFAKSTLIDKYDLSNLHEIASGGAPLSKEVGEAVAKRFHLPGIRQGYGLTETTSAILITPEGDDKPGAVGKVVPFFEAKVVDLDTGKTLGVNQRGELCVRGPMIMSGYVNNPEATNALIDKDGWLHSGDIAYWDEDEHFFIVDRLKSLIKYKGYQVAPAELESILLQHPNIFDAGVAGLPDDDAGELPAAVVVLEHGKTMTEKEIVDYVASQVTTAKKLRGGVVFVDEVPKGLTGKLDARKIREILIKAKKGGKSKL
# TEST PROTOCOL: Biochemical firefly luciferase enzyme assay for NPC (AID 624030); further: nearly all actives have a fitted effect of over 70% in size
# ASSAY CONTEXT: purified P. pyralis luciferase, luminescence, 5 min; series mostly up to 58.6 µM
Results filed as inconclusive are left out. Calls of active or inactive are those of the source. The call rests on the fitted dose curve; in most records, active means well fitted inhibition curve with a large enough effect; inconclusive means small, poorly fitted or top-dose-only effect; inactive means flat fitted curve, though single readings scatter.
Use one of these outcomes when replying: YES for active, NO for inactive

Worked examples, 10 compounds total:
COMPOUND | LABEL CLASS
CN(C)C(=O)CCSC(SCCC(=O)O)c1cccc(/C=C/c2ccc3ccc(Cl)cc3n2)c1 (configuration not stated) | YES
CC(C)[C@@H](N)C(=O)O | NO
OCC1(CO)COC(C(Cl)(Cl)Cl)OC1 | NO
CC/C(=C(/CC)c1ccc(OP(=O)(O)O)cc1)c1ccc(OP(=O)(O)O)cc1 | NO
CCCCCCCCCCCCCCCCCC(=O)OC[C@@H](O)[C@H]1OC[C@H](O)[C@H]1O | NO
Nc1ncnc2c1ncn2CCOCP(=O)(O)O | NO
CC(=O)[C@H]1CC[C@H]2[C@@H]3C=CC4=CC(=O)CC[C@@]4(C)[C@H]3CC[C@]12C | NO
CC(=O)[O][Al][O]C(C)=O | NO
CC(=O)c1ccc2c(c1)N(CCCN1CCN(CCO)CC1)c1ccccc1S2 | NO
CC(=O)Oc1cccc(C(=O)O)c1OC(C)=O | NO

q: What was the test verdict on O=C(O)COc1ccccc1/C=N/NC(=O)c1ccncc1 ?
a: NO

q: What was the test verdict on CC1CCCCN1CCCOC(=O)c1ccccc1 (configuration not stated) ?
a: NO
